Answer each item with its documented phage binding ELISA signal.
biological target: T1, 006 PSMA Fab; assay: clonal phage ELISA on biotinylated anti-PSMA Fab captured on neutravidin, anti-M13 HRP detection
T1 construct: also called Anti-PSMA Fab
Simply state the number, no unit and no words.

Can you look up the measured phage binding ELISA signal of VVRHCVPTWMCTGF [Phage-3532] for me?
1.66

Repeat for the following binder: YPPLCKPEWMCVGL [Phage-3525]
1.67

Could you do the same for ELLHCKPMWMCIGL [Phage-3524] , please?
1.67

What do you have for WFRMCEPSWMCEGF [Phage-3527] ?
1.67
